Recorded kon, one value per entry.
- target.or.system: Recombinant human his-tagged IGF 1R extracellular domain protein (human) (UniProt P08069)
- test.details: SPR, captured antibody, dissociation at pH 6
experimental.endpoint: kon (M⁻¹ s⁻¹)

# binder, experimental.endpoint, measurement
records = [
    ("VRDN-03043 (antibody, V domains shown) VH: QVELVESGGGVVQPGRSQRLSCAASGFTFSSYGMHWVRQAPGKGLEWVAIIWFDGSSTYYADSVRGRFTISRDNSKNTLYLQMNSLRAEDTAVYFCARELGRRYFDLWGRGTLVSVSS VL: EIVLTQSPATLSLSPGERATLSCRASQSHSSYLAWYQQKPGQAPRLLIYDASKRATGIPARFSGSGSGTDFTLTISSLEPEDFAVYYCQQRSKWPPWTFGQGTKVESK", "kon", "1.39e+06"),
    ("VRDN-03046 (antibody, V domains shown) VH: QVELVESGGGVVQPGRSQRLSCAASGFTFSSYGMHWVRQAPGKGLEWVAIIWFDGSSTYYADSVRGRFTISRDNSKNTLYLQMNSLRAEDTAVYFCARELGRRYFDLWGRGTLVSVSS VL: EIVLTQSPATLSLSPGERATLSCRASQSVSSHLAWYQQKPGQAPRLLIYDASKRATGIPARFSGSGSGTDFTLTISSLEPEDFAVYYCQQRSKWPPWTFGQGTKVESK", "kon", 84800),
    ("VRDN-03115 (antibody, V domains shown) VH: QVQLVESGGGVVQPGRSLRLSCAASGFTFSDHYMDWVRQAPGKGLEWVAIIWFDGSSKYYPGSVKGRFTISRDNSKNTLYLQMNSLRAEDTAVYYCARELGRRYFDIWGRGTLVTVSS VL: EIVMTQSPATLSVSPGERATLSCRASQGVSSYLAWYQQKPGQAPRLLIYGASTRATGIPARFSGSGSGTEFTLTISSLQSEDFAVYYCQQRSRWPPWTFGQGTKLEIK", "kon", 246000),
    ("VRDN-03050 (antibody, V domains shown) VH: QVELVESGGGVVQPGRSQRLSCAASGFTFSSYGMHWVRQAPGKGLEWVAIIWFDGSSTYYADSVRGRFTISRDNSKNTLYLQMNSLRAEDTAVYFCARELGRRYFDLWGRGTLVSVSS VL: EIVLTQSPATLSLSPGERATLSCRASQSVSSYLAWYQQKPGQAPRLLIYDHSKRATGIPARFSGSGSGTDFTLTISSLEPEDFAVYYCQQRSKWPPWTFGQGTKVESK", "kon", 75800),
    ("VRDN-03101 (antibody, V domains shown) VH: QVQLVESGGGVVQPGRSLRLSCAASGFTFSDYTMHWVRQAPGKGLEWVAIIWFDGSSKYYADSVKGRFTISRDNSKNTLYLQMNSLRAEDTAVYYCARELGRRYFDIWGRGTLVTVSS VL: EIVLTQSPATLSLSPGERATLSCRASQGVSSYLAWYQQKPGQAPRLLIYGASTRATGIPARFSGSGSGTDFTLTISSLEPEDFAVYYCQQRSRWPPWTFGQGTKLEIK", "kon", 219000),
    ("VRDN-03107 (antibody, V domains shown) VH: QVQLVESGGGVVQPGRSLRLSCAASGFTFSSYSMHWVRQAPGKGLEWVAIIWFDGSSKYYADSVKGRFTISRDNSKNTLYLQMNSLRAEDTAVYYCARELGRRYFDIWGRGTLVTVSS VL: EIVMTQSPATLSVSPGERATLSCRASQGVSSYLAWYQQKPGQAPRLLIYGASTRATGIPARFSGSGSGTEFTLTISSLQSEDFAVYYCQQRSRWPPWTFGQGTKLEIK", "kon", 242000),
    ("VRDN-03109 (antibody, V domains shown) VH: QVQLVESGGGVVQPGRSLRLSCAASGFTFSSYSMHWVRQAPGKGLEWVAIIWFDGSSKYYPGSVKGRFTISRDNSKNTLYLQMNSLRAEDTAVYYCARELGRRYFDIWGRGTLVTVSS VL: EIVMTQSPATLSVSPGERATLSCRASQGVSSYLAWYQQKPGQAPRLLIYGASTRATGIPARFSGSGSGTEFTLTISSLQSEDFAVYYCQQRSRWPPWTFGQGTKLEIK", "kon", 180000),
    ("VRDN-03044 (antibody, V domains shown) VH: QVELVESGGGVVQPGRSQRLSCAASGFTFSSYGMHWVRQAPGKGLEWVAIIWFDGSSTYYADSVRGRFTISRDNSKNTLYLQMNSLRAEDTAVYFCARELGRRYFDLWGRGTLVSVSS VL: EIVLTQSPATLSLSPGERATLSCRASQSVHSYLAWYQQKPGQAPRLLIYDASKRATGIPARFSGSGSGTDFTLTISSLEPEDFAVYYCQQRSKWPPWTFGQGTKVESK", "kon", 57300),
    ("VRDN-03100 (second entry of that label; VH and VL pair SEQ ID NO: 223) (antibody, V domains shown) VH: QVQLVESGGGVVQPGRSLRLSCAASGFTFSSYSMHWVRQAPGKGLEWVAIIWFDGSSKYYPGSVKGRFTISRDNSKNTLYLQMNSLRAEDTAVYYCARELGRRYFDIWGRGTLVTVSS VL: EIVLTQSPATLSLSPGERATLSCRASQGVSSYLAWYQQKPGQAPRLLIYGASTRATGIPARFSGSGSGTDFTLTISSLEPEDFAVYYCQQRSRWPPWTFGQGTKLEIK", "kon", 630000),
    ("VRDN-03102 (antibody, V domains shown) VH: QVQLVESGGGVVQPGRSLRLSCAASGFTFSDYTMHWVRQAPGKGLEWVAIIWFDGSSKYYVDSVKGRFTISRDNSKNTLYLQMNSLRAEDTAVYYCARELGRRYFDIWGRGTLVTVSS VL: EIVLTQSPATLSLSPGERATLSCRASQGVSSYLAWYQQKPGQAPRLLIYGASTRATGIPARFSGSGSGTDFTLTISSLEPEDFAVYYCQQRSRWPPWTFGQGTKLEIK", "kon", 218000),
]
